Give measured Kd for each item. Keep answers brief.
Tested system: Recombinant protein Claudin 18.2
Sequence (chain, as listed by the source limits assumed, form in doubt): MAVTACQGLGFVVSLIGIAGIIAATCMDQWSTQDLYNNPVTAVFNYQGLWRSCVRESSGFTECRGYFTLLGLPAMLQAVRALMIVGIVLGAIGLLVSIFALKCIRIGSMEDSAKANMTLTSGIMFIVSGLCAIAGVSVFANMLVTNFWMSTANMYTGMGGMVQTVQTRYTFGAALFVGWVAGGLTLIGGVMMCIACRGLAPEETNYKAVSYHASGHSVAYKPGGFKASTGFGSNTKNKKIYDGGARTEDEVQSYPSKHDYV
Assay comment: ELISA on plate-coated recombinant Claudin 18.2, OD450; Kd table under the graph, no unit in the table, unit from the x axis log[antibody] nM
Just the number in nM, nothing appended.

Problem: Tell us which Kd value is on record for h5C9ol (antibody, V domains shown) VH: EVQLVESGGGLVQPGGSLRLSCAVSGYTFSMNWVRQAPGKGLEWVAWINMYTGEPTYADDFKGRFTISRDDSKNTLYLQMNSLRAEDTAVYYCARLGPGNVFDYWGQGTLVTVSS VL: DIQMTQSPSSLSASVGDRVTITCKSSQSLLNSGNQKSYLTWYQQKPGKAPKLLIYWASTLESGVPSRFSGSGSGTDYTLTISSLQPEDFATYYCQNAYSFPFTFGQGTKVEIK
Solution: 0.119

Problem: Tell me measured Kd for h5C9a (antibody, V domains shown) VH: EVQLVESGGGLVQPGGSLRLSCAASGYTFTNYGMNWVRQAPGKGLEWVAWINMYTGEPTYADDFKGRFTISRDDSKNTLYLQMNSLRAEDTAVYYCARLYNGNSLDYWGQGTLVTVSS VL: DIQMTQSPSSLSASVGDRVTITCKSSQSLLNSGNQKSYLTWYQQKPGKAPKLLIYWASTLESGVPSRFSGSGSGTDFTLTISSLQPEDFATYYCQNAYSFPFTFGQGTKVEIK please.
Solution: 0.278

Problem: Recall and state the measured Kd for h5C9ox (antibody, V domains shown) VH: EVQLVESGGGLVQPGGSLRLSCAVSGYTFSMNWVRQAPGKGLEWVAWINMYTGEPTYADDFKGRFTISRDDSKNTLYLQMNSLRAEDTAVYYCARASRGNGMDYWGQGTLVTVSS VL: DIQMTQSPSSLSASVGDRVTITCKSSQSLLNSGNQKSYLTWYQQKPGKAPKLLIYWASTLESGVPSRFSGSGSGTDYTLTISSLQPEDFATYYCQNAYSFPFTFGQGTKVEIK .
Solution: 0.079

Problem: Determine from records and report Kd for Anti-CLDN 18.2-5C9oae (humanized antibody h5C9oae) (antibody, human IgG1, V domains shown) VH: EVQLVESGGGLVQPGGSLRLSCAVSGYTFSMNWVRQAPGKGLEWVAWINMYTGEPTYADDFKGRFTISRDDSKNTLYLQMNSLRAEDTAVYYCARLYRGNSLDYWGQGTLVTVSS VL: DIQMTQSPSSLSASVGDRVTITCKSSQSLLNSGNQKSYLTWYQQKPGKAPKLLIYWASTLESGVPSRFSGSGSGTDYTLTISSLQPEDFATYYCQNAYFFPFTFGQGTKVEIK
Solution: 0.14

Problem: Supply recorded Kd for Anti-CLDN 18.2-5C9o (humanized antibody h5C9o) (antibody, V domains shown) VH: EVQLVESGGGLVQPGGSLRLSCAVSGYTFSMNWVRQAPGKGLEWVAWINMYTGEPTYADDFKGRFTISRDDSKNTLYLQMNSLRAEDTAVYYCARLYNGNSLDYWGQGTLVTVSS VL: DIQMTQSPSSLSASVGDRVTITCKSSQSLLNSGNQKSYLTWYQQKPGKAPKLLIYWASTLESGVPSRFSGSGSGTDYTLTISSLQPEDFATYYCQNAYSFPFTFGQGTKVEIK here.
Solution: 0.128

Problem: Give Kd for h5C9oq (antibody, V domains shown) VH: EVQLVESGGGLVQPGGSLRLSCAVSGYTFSMNWVRQAPGKGLEWVAWINMYTGEPTYADDFKGRFTISRDDSKNTLYLQMNSLRAEDTAVYYCARLYRGNVMDYWGQGTLVTVSS VL: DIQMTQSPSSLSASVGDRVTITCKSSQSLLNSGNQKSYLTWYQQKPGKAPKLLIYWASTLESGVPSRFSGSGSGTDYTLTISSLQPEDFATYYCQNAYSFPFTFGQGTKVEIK
Solution: 0.107

Problem: Using known records, supply Kd for h5C9or (antibody, V domains shown) VH: EVQLVESGGGLVQPGGSLRLSCAVSGYTFSMNWVRQAPGKGLEWVAWINMYTGEPTYADDFKGRFTISRDDSKNTLYLQMNSLRAEDTAVYYCARLNRGNSMDYWGQGTLVTVSS VL: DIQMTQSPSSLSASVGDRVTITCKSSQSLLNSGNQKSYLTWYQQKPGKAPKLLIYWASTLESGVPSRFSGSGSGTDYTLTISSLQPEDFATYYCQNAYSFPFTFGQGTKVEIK
Solution: 0.0715

Problem: Supply measured Kd of h5C9oy (antibody, V domains shown) VH: EVQLVESGGGLVQPGGSLRLSCAVSGYTFSMNWVRQAPGKGLEWVAWINMYTGEPTYADDFKGRFTISRDDSKNTLYLQMNSLRAEDTAVYYCARSSKGNGLDYWGQGTLVTVSS VL: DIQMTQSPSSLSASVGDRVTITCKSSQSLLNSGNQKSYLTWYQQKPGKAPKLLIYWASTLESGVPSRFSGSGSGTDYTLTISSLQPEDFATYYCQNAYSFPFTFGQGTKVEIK in your reply.
Solution: 0.103

Problem: Please list Kd recorded for the binder h5C9o Fc mutation (antibody, V domains shown) VH: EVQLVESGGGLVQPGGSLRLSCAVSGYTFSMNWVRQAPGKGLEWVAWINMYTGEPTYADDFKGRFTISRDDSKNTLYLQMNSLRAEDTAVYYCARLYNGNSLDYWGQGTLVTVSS VL: DIQMTQSPSSLSASVGDRVTITCKSSQSLLNSGNQKSYLTWYQQKPGKAPKLLIYWASTLESGVPSRFSGSGSGTDYTLTISSLQPEDFATYYCQNAYSFPFTFGQGTKVEIKR
Solution: 0.114

Problem: Give the measured Kd for h5C9oap (antibody, V domains shown) VH: EVQLVESGGGLVQPGGSLRLSCAVSGYTFSMNWVRQAPGKGLEWVAWINMYTGERTYADDFKGRFTISRDDSKNTLYLQMNSLRAEDTAVYYCARLYNGNSLDYWGQGTLVTVSS VL: DIQMTQSPSSLSASVGDRVTITCKSSQSLLNWGNQKSYLTWYQQKPGKAPKLLIYWASTLQSGVPSRFSGSGSGTDYTLTISSLQPEDFATYYCQNAYSFPFTFGQGTKVEIK
Solution: 0.189
